Origin of measurements: ChEMBL document CHEMBL1135937

assay: Uptake ratio Ki of norepinephrine relative to serotonin (5-HT) at monoamine transporter
# Ratio per entry
measured-parameter: Ratio

compound="CNC(=O)C1C2CC3CCC1N3C/C2=C\\c1ccc(Cl)c(Cl)c1 (stereo unspecified)" value_relation_sign== value=14
compound="O=C(OCC1C2CC3CCC1N3C/C2=C\\c1cccc(Cl)c1)c1ccccc1 (stereo unspecified)" value_relation_sign== value=598
compound="COC(=O)C1C2CC3CCC1N3C/C2=C\\c1ccc(/C=C2\\CN3C4CCC3C(C(=O)OC)C2C4)cc1 (stereo unspecified)" value_relation_sign== value=34
compound="COC(=O)C1C2CC3CCC1N3C/C2=C\\c1cccc2ccccc12 (stereo unspecified)" value_relation_sign== value=44
compound="COC(=O)C1C2CC3CCC1N3C/C2=C\\c1ccc(F)c(F)c1 (stereo unspecified)" value_relation_sign== value=3.9
compound="CCC(=O)C1C2CC3CCC1N3C/C2=C\\c1ccc(Cl)c(Cl)c1 (stereo unspecified)" value_relation_sign== value=296
compound="O=C(OCC1C2CC3CCC1N3C/C2=C\\c1ccc(Cl)c(Cl)c1)c1ccc2ccccc2c1 (stereo unspecified)" value_relation_sign== value=640
compound="Clc1ccc(/C=C2\\CN3C4CCC3C(/C=C\\c3ccccc3)C2C4)cc1Cl (stereo unspecified)" value_relation_sign== value=11.4
compound="CC(=O)OCC1C2CC3CCC1N3C/C2=C\\c1ccc(Cl)c(Cl)c1 (stereo unspecified)" value_relation_sign== value=399
compound="COC(=O)C1C2CC3CCC1N3C/C2=C\\c1cc(Cl)cc(Cl)c1 (stereo unspecified)" value_relation_sign== value=9.4
compound="O=C(CCCCCCCCCC(=O)OCC1C2CC3CCC1N3C/C2=C\\c1ccc(Cl)c(Cl)c1)OCC1C2CC3CCC1N3C/C2=C\\c1ccc(Cl)c(Cl)c1 (stereo unspecified)" value_relation_sign=> value=1170
compound="COC(=O)C1C2CC3CCC1N3C/C2=C\\c1ccc(I)cc1Cl (stereo unspecified)" value_relation_sign== value=6.9
compound="O=C(OCC1C2CC3CCC1N3C/C2=C\\c1ccc(I)cc1)c1ccccc1 (stereo unspecified)" value_relation_sign== value=81900
compound="CC(=O)OCC1C2CC3CCC1N3C/C2=C\\c1cccc(Cl)c1 (stereo unspecified)" value_relation_sign== value=12.7
compound="COC(=O)C1C2CC3CCC1N3C/C2=C\\c1ccccc1 (stereo unspecified)" value_relation_sign== value=0.05
compound="COC(=O)C1C2CC3CCC1N3C/C2=C\\c1ccc(Cl)c(Cl)c1 (stereo unspecified)" value_relation_sign== value=50

----------
target: Sodium-dependent dopamine transporter (Rattus norvegicus, UniProt P23977); assay: Ability to inhibit high affinity reuptake of [3H]DA from dopamine transporter into nerve endings synaptosomes
Sequence (P23977 whole entry): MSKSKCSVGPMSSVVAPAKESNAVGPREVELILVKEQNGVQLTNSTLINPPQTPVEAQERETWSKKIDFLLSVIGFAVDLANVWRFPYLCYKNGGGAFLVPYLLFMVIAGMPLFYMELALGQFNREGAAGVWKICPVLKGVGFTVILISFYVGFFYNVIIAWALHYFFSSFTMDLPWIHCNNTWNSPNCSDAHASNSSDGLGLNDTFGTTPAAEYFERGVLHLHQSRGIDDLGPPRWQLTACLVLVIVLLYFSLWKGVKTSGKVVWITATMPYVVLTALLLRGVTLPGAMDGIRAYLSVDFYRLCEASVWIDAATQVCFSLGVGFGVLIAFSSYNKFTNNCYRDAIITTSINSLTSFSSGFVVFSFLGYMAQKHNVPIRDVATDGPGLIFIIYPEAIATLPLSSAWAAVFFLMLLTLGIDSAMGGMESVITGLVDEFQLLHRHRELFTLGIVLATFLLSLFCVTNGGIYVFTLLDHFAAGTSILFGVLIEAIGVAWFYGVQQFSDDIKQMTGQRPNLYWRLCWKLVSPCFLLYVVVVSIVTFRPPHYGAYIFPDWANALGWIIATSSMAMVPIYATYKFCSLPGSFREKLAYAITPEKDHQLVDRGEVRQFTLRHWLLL
pKi: −log10 of the molar value.
// values below are reported pKi
measured-parameter: pKi

molecule="COC(=O)C1C2CC3CCC1N3C/C2=C\\c1ccc(C)c(Cl)c1 (centres undefined)" measured_parameter=pKi value="< 5.00"
molecule="O=C(OCC1C2CC3CCC1N3C/C2=C\\c1ccc(Cl)c(Cl)c1)c1ccc2ccccc2c1 (centres undefined)" measured_parameter=pKi value="< 5.00"
molecule="O=C(OCC1C2CC3CCC1N3C/C2=C\\c1ccc(Br)c(Cl)c1)c1ccccc1 (centres undefined)" measured_parameter=pKi value="< 5.00"
molecule="O=C(OCC1C2CC3CCC1N3C/C2=C\\c1ccc(I)c(Cl)c1)c1ccccc1 (centres undefined)" measured_parameter=pKi value="< 5.00"
